From: ChEMBL document CHEMBL3886475

- SUBJECT OF TEST: Tyrosine-protein kinase BTK (Homo sapiens)
- Sequence (Q06187 whole entry): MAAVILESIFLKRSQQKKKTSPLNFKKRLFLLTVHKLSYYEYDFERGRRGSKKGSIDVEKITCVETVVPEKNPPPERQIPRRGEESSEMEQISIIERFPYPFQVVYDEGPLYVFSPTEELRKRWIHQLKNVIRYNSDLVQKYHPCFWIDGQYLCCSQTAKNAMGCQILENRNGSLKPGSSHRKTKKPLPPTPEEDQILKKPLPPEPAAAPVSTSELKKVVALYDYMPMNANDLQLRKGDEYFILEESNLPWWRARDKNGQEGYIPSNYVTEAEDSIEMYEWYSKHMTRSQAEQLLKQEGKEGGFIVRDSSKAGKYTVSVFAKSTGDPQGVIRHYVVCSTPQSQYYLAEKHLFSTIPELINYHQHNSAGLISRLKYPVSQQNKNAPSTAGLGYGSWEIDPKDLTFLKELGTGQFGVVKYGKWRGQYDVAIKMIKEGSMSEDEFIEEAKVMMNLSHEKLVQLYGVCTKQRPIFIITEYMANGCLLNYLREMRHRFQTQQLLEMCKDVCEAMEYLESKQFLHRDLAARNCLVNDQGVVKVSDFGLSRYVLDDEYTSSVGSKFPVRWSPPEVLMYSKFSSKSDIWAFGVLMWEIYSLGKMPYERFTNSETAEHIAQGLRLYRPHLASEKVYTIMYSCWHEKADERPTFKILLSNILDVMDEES
- TEST NAME: Recombinant Human BTK Inhibition Assay: The inhibition assays were performed using the generic tyrosine kinase assay kit from C is Bio (HTRF KinEASE-TK #62TK0PEB). The assay is based on the principle of fluorescence resonance energy transfer (FRET) between the Europium Cryptate labeled anti-phosphotyrosine antibody and streptavidin labeled fluorophore, XL-665. In an uninhibited kinase reaction the biotinylated peptide substrate (Tk-Biotin) gets phosphorylated at an intermediate tyrosine site which is captured by anti-phosphotyrosine antibody which eventually acts as a FRET donor. The streptavidin labeled XL-665 binds strongly to the Tk-Biotin substrate and act as a FRET acceptor. The resultant FRET signal is measured at 665 nm. A ratio of this specific fluorescence (665 nm) to the background fluorescence (620 nm), conferred by the free antibody, is directly proportional to the kinase activity. Inhibition of the kinase activity by a pharmacological intervention such as a Btk inhibitor of the present disclosure will result into decreased FRET signal.
pIC50: −log10 of the molar value.
REPORTED PROPERTY: pIC50

[[record]]
structure = "CCN1CC(n2cc(-c3cc4c(-c5cccc(N6CCOc7cc(C8CC8)ccc7C6=O)c5CO)ccnc4[nH]3)cn2)C1"
reported_property = "pIC50"
data_value = 8.15

